The measured values listed here are drawn from paper PMC6458995.

Target: DYRK2 (Homo sapiens, UniProt Q92630)
Construct: lines 1-140) and Reaction Biology
Sequence (Q92630 whole entry): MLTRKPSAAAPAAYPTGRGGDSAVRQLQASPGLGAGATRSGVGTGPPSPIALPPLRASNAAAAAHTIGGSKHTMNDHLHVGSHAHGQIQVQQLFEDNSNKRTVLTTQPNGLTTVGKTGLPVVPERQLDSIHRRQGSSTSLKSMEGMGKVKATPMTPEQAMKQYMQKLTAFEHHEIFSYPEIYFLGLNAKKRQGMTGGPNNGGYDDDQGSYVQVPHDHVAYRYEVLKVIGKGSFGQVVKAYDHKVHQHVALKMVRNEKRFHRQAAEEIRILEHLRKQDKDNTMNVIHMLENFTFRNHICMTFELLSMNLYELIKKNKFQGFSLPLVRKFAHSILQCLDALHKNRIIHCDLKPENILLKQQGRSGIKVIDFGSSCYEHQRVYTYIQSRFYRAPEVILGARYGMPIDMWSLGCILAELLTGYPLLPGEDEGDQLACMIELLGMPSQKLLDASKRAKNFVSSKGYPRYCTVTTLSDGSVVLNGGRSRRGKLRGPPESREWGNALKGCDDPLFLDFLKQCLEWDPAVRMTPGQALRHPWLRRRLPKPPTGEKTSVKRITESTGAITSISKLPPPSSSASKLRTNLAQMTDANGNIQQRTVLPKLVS
Test: Dundee kinase panel
Format: biochemical
Details: read-out: residual activity
Field: remaining activity at 1 µM. Provide a value for each of the molecules that follow.
Numbers only, in %.

Here is how some molecules turned out for remaining activity at 1 µM.
{"sampleSmiles": "O=C1Cc2c([nH]c3ccc(Br)cc23)-c2ccccc2N1", "remaining activity at 1 µM, %": 91}
{"sampleSmiles": "O=C1Nc2ccc(I)cc2/C1=C/c1cc(Br)c(O)c(Br)c1", "remaining activity at 1 µM, %": 13}
{"sampleSmiles": "Oc1ncnc2c1c(-c1ccccc1)cn2-c1ccccc1", "remaining activity at 1 µM, %": 93}

Kindly review the next molecule as well.
Exam item: Hello, I am looking for reported remaining activity at 1 µM with DYRK2 (Homo sapiens, UniProt Q92630) for COCCOc1ccc(-c2cn(-c3ccccc3)c3nc[nH]c(=O)c23)cc1 . Could you help?
Marked response: 115

###

Molecular target: KHS/MAP4K5 (Homo sapiens)
Sequence (Q9Y4K4 whole entry): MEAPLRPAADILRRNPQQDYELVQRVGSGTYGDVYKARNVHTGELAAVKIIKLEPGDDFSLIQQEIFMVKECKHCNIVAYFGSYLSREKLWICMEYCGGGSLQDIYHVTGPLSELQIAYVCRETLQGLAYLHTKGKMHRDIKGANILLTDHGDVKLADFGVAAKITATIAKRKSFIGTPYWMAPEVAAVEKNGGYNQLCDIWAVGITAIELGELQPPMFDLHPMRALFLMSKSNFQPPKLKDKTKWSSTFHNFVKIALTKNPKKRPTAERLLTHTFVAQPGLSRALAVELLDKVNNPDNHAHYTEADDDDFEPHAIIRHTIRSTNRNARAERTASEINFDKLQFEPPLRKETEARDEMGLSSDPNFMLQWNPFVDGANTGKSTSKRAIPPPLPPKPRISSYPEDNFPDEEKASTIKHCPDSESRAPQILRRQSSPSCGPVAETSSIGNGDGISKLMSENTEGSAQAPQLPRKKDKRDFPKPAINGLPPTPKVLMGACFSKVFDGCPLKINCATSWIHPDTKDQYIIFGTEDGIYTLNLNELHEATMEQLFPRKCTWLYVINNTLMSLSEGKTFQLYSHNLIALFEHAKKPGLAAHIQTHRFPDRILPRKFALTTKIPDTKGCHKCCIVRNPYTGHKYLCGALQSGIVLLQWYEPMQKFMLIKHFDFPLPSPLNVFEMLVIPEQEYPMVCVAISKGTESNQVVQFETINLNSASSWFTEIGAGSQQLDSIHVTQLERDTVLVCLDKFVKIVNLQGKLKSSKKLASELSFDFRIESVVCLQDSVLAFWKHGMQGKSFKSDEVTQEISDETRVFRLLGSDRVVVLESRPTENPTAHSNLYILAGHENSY
Experiment: HTRF Transcreener ADP kinase assay
Settings: KHS/MAP4K5; HTRF Transcreener ADP assay
Would you kindly list pIC50 for each of these compounds?
Give bare numbers, as −log10 of the molar value.

{"compound": "Oc1ncnc2c1c(-c1ccccc1)cn2-c1ccccc1 [F1386-0303]", "pIC50": 5.22}

Exam item: Query for KHS/MAP4K5 (Homo sapiens): what pIC50 does the record show for COCCOc1ccc(-c2cn(-c3ccccc3)c3nc[nH]c(=O)c23)cc1 [DMX-5804] ?
Marked response: 6.36

###

Assignment: determine reported remaining activity at 1 µM for the given compounds.
Biological target: PIM3 (Homo sapiens, UniProt Q86V86)
Construct: lines 1-140) and Reaction Biology
Assay: Dundee kinase panel
Type: biochemical
Details: read-out: residual activity
Answers are plain numbers, in %.

Sample answers from the record:
{"sampleSmiles": "Oc1ncnc2c1c(-c1ccccc1)cn2-c1ccccc1", "remaining activity at 1 µM / %": 74}
{"sampleSmiles": "O=C1Cc2c([nH]c3ccc(Br)cc23)-c2ccccc2N1", "remaining activity at 1 µM / %": 103}
{"sampleSmiles": "O=C1Nc2ccc(I)cc2/C1=C/c1cc(Br)c(O)c(Br)c1", "remaining activity at 1 µM / %": 6}

Next:
Exam item: Return reported remaining activity at 1 µM; argument: COCCOc1ccc(-c2cn(-c3ccccc3)c3nc[nH]c(=O)c23)cc1
Marked response: 88

###

Biological target: PRAK (Homo sapiens)
Construct: lines 1-140) and Reaction Biology
Sequence (Q8IW41 1-473): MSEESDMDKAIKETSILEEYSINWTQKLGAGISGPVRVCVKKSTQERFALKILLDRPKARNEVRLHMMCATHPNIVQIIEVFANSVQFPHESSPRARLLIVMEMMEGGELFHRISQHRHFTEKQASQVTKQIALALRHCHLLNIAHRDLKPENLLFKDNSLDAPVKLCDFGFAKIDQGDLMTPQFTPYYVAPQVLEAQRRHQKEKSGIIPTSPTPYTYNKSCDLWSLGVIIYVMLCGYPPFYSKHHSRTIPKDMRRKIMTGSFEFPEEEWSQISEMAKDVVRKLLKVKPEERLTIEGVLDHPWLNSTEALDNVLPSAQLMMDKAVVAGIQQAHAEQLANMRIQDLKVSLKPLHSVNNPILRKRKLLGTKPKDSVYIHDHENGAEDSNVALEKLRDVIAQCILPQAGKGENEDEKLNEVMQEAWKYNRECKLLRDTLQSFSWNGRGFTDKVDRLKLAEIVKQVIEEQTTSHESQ
Assay: Dundee kinase panel
Format: biochemical
Conditions: read-out: residual activity
Kindly supply the reported remaining activity at 1 µM values for the records listed here.
Give bare numbers, in %.

Some solved cases for reference:
{"compound": "O=C1Nc2ccc(I)cc2/C1=C/c1cc(Br)c(O)c(Br)c1 [GW5074]", "measuredMetric": "remaining activity at 1 µM", "resultUnits": "%", "reading": 93}
{"compound": "O=C1Cc2c([nH]c3ccc(Br)cc23)-c2ccccc2N1 [Kenpaullone]", "measuredMetric": "remaining activity at 1 µM", "resultUnits": "%", "reading": 95}
{"compound": "Oc1ncnc2c1c(-c1ccccc1)cn2-c1ccccc1 [F1386-0303]", "measuredMetric": "remaining activity at 1 µM", "resultUnits": "%", "reading": 113}

Exam item: Give PRAK (Homo sapiens) remaining activity at 1 µM for COCCOc1ccc(-c2cn(-c3ccccc3)c3nc[nH]c(=O)c23)cc1 [DMX-5804]
Marked response: 92

###

Target: NEK6 (Homo sapiens, UniProt Q9HC98)
Construct: lines 1-140) and Reaction Biology
Sequence (Q9HC98 whole entry): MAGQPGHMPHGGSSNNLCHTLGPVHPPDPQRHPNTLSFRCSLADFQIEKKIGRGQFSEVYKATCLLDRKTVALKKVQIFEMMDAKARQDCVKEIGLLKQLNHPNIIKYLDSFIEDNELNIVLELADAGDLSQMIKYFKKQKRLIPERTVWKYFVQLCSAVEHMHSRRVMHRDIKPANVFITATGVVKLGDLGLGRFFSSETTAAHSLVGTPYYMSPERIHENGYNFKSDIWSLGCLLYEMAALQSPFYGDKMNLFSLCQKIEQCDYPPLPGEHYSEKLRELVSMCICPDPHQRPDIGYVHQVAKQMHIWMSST
Assay: Dundee kinase panel
Format: biochemical
Conditions: read-out: residual activity
Could you please report measured remaining activity at 1 µM for the items listed next?
Numbers only, in %.

In the examples that follow, each entry is paired with its recorded remaining activity at 1 µM.
{"compound": "Oc1ncnc2c1c(-c1ccccc1)cn2-c1ccccc1 [F1386-0303]", "measuredOn": "NEK6 (Homo sapiens, UniProt Q9HC98)", "remaining activity at 1 µM, %": 128}
{"compound": "O=C1Nc2ccc(I)cc2/C1=C/c1cc(Br)c(O)c(Br)c1 [GW5074]", "measuredOn": "NEK6 (Homo sapiens, UniProt Q9HC98)", "remaining activity at 1 µM, %": 82}
{"compound": "O=C1Cc2c([nH]c3ccc(Br)cc23)-c2ccccc2N1 [Kenpaullone]", "measuredOn": "NEK6 (Homo sapiens, UniProt Q9HC98)", "remaining activity at 1 µM, %": 99}

Pending compound:
Exam item: # query: remaining activity at 1 µM of entry COCCOc1ccc(-c2cn(-c3ccccc3)c3nc[nH]c(=O)c23)cc1 [DMX-5804]
Marked response: 101

###

Give measured IC50 for each item. Keep answers brief.
Biological target: GLK/MAP4K3 (Homo sapiens, UniProt Q8IVH8)
Sequence (Q8IVH8 1-894): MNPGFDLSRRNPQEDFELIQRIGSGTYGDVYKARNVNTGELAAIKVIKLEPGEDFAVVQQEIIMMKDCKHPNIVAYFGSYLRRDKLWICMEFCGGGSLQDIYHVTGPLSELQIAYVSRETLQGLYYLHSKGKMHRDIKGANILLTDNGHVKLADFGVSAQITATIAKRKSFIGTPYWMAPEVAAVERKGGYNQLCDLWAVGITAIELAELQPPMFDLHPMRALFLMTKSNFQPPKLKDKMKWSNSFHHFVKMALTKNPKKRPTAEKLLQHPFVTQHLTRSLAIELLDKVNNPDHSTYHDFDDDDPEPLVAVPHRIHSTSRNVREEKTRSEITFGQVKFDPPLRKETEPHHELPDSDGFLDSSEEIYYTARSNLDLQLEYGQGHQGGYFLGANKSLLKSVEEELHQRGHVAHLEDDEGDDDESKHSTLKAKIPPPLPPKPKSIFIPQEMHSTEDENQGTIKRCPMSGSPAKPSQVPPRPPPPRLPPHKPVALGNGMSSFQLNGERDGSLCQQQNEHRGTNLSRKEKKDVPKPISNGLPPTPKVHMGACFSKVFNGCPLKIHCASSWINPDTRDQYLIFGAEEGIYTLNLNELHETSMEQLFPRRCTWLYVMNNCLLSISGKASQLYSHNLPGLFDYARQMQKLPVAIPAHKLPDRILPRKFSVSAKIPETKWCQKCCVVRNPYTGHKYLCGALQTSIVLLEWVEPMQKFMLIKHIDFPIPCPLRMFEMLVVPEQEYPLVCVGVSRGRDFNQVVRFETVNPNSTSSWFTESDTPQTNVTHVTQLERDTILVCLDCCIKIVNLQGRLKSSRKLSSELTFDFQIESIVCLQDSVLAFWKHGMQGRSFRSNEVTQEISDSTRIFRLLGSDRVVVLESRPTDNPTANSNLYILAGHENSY
Experiment: HTRF Transcreener ADP kinase assay
Details: GLK/MAP4K3; HTRF Transcreener ADP assay
Give bare numbers, in µM.

{"sampleSmiles": "COCCOc1ccc(-c2cn(-c3ccccc3)c3nc[nH]c(=O)c23)cc1", "resultUnits": "µM", "IC50": 11.2}

Now for another entry.
Exam item: Endpoint output: IC50 of Oc1ncnc2c1c(-c1ccccc1)cn2-c1ccccc1 . Value?
Marked response: 30.2

###

Molecular target: OSR1 (Homo sapiens)
Construct: lines 1-140) and Reaction Biology
Sequence (O95747 whole entry): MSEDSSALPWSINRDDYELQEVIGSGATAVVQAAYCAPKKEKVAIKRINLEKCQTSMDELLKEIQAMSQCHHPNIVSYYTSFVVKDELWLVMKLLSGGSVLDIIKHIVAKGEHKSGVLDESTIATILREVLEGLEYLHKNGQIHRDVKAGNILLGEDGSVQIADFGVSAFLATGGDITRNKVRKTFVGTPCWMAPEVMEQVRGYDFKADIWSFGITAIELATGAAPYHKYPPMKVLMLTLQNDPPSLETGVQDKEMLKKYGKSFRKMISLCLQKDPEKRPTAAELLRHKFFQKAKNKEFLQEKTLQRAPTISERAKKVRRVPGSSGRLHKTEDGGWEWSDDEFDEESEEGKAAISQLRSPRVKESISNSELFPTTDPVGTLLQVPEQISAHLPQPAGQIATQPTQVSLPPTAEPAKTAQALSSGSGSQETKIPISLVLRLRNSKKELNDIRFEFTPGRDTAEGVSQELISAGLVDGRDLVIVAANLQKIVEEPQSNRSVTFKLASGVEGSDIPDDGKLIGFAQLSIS
Experiment: Dundee kinase panel
Type: biochemical
Conditions: read-out: residual activity
Assignment: determine reported remaining activity at 1 µM for the given compounds.
Please give the number followed by its unit.

The cases that follow already have their remaining activity at 1 µM on record.
{"sampleSmiles": "O=C1Cc2c([nH]c3ccc(Br)cc23)-c2ccccc2N1", "remaining activity at 1 µM": "52%"}
{"sampleSmiles": "O=C1Nc2ccc(I)cc2/C1=C/c1cc(Br)c(O)c(Br)c1", "remaining activity at 1 µM": "24%"}
{"sampleSmiles": "Oc1ncnc2c1c(-c1ccccc1)cn2-c1ccccc1", "remaining activity at 1 µM": "102%"}

// moving on: another record for remaining activity at 1 µM
Exam item: Fill blank: measured remaining activity at 1 µM of the compound COCCOc1ccc(-c2cn(-c3ccccc3)c3nc[nH]c(=O)c23)cc1 is ____.
Marked response: 128%
